src = paper PMC10397247

Target: T1, 4H3926-bH
T1 chain: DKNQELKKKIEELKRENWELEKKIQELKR
Assay: two-hybrid library CCNG1;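 also: natural log of median RNA to DNA barcode read ratio; higher means stronger binding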
Decide using interaction score alone. Strictly below 0.6: Condition met. Equal to or above 0.6: Condition not met.

# example entries with known answers
>>> answer_label("DKNQELEKENEELKREIWELKKKIQELER [4H3277-bH]")
"Condition met"
>>> answer_label("DKNQELEKEIEELERKIWELEKKNQELKR [4H3112-bH]")
"Condition met"
>>> answer_label("DKIQELKKEIEELKREIWELEKENQELER [4H2627-bH]")
"Condition met"
>>> answer_label("DKNQELEKKIEELKRKIWELEKENQELER [4H3427-bH]")
"Condition met"

**Query** Regarding DENQELEKENEELEREIWELEKKIQELKR [4H1158-bH] , kindly confirm whether its interaction score is beneath 0.6.
**Result** Condition not met

**Query** Next: DEIQELEKEIEELKRKNWELEKKIQELKR [4H118-bH]
**Result** Condition not met
